- MEASUREMENT_PROTOCOL: Plasma pharmacokinetics of ESK-440 and metabolite CEP-38901
- Type: in vivo, human
- RUN_CONDITIONS: human, plasma, oral, 700 mg/day, AUC0-t, Day 1, 700 mg/day (N = 5)

[
  {
    "SMILES_INPUT": "CNC(=O)c1ccccc1Nc1nc(Nc2ccc3c(c2OC)CCC[C@H](N2CCN(CCO)CC2)C3)ncc1Cl",
    "AUC(0-t)": "11500 ng·h/mL"
  }
]

* * *

- MEASUREMENT_PROTOCOL: Plasma pharmacokinetics of ESK-440 and metabolite CEP-38901
- Type: in vivo, human
- RUN_CONDITIONS: human, plasma, oral, 350 mg/day, Cmax, Day 1, 350 mg/day (N = 4)
ENDPOINT_LABEL: Cmax (ng/mL)

[
  {
    "COMPOUND": "CNC(=O)c1ccccc1Nc1nc(Nc2ccc3c(c2OC)CCC[C@H](N2CCN(CCO)CC2)C3)ncc1Cl [ESK-440]",
    "ENDPOINT_LABEL": "Cmax",
    "MEASURE_UNIT": "ng/mL",
    "VAL": 334
  }
]
